tested on: CASK; details: concentration: 1 μM, replicates: in singlicate; n = 1;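 note: KINOMEscan kinase panel screen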
Binary call on %Inh: rule met from 8% upward, rule not met beneath that.

# compound, test-target, group-label
measured = [
    ("CSc1ccc(-c2cc3ncnc(SCC(=O)O)c3s2)cc1", "CASK", "rule not met"),
]

In the following, a different compound is considered.
Reported %Inh reaches at least 8% for `O=C1Cc2cc(Nc3nc(NCc4cccc(S(=O)(=O)C(F)(F)F)c4)ncc3C(F)(F)F)ccc2N1` ?
rule not met

----------
test system: HIPK4; details: concentration: 1 μM, replicates: in singlicate; n = 1
%Inh values by entry
I only need the number, in %, no unit after it.

Example results:
# sample-smiles, %Inh [%]
measured = [
    ("CNc1ncnc2[nH]ncc12", 0),
    ("Fc1ccc(-c2nn3c(OCC(F)(F)F)cccc3c2-c2ccncc2)cc1", 0),
    ("CCCCCc1nc2c(N)ncnc2n1CCCCC", 1),
    ("Fc1ccc(-c2ncn(CCCN3CCOCC3)c2-c2cccnc2)cc1", 4),
]

Here is another compound to look at.
Recorded %Inh for `CN(C(=O)c1ccc(-c2cc(-c3c[nH]nc3-c3ccccn3)ccn2)cc1)C1CCOCC1` , please?
0

----------
tested on: GAK; conditions: concentration: 1 μM, replicates: in singlicate; n = 1
quantity-kind: %Inh

Example results:
# sample-smiles, %Inh
data = [
    ("Cc1cn2c(=O)cc(N3CCOCC3)nc2n1Cc1cccc(Cl)c1Cl", "35%"),
    ("NS(=O)(=O)CCc1cccc(Nc2nccc(-c3c(-c4cccc(NC(=O)c5c(F)cccc5F)c4)nn4ccccc34)n2)c1", "28%"),
    ("COCCNC(=O)c1ccc(-c2cc(C(=O)NC3CC3)cc(F)c2C)cc1", "0%"),
]

Here is another molecule to look at.
Recorded %Inh for `CN1c2ccc(NCc3ccc(F)cc3)cc2-c2c(cnn2C)S1(=O)=O` , please?
0%

----------
tested on: CAMK1; details: concentration: 1 μM, replicates: in singlicate; n = 1
%Inh values by entry
Answer as a quantity: numeral, then unit.

# compound, test-target, endpoint-result
measured = [
    ("Cc1c(Cn2c(C)nn3c(=O)cc(N4CCOC(C)C4)nc23)cccc1C(F)(F)F (stereo not shown) [GSK2344444]", "CAMK1", "0%"),
    ("NCC(NC(=O)c1cc(-c2cn[nH]c2)c(-c2ccnc3[nH]ccc23)s1)c1ccccc1.O=C(O)C(F)(F)F.O=C(O)C(F)(F)F (stereo not shown) [GSK1325775]", "CAMK1", "41%"),
    ("Cl.Oc1cccc(Nc2ccnc3cc(-c4ccncc4)ccc23)c1 [GW494601]", "CAMK1", "35%"),
]

Here is another compound to look at.
Recorded %Inh for O=C(c1ccc(-c2cc(-c3c[nH]nc3-c3ccccn3)ccn2)cc1)N1CCOCC1 [GW812171] , please?
14%

----------
tested on: RET; conditions: concentration: 1 μM, replicates: in singlicate; n = 1
quantity-kind: %Inh (%)
I only need the number, in %, no unit after it.

# compound, unit-spec, %Inh
measured = [
    ("COc1ccc(Nc2nccc(N3CCC(NC(=O)Nc4cc(C)ccc4C)C3)n2)cc1 (stereo not shown)", "%", 52),
    ("CC(=O)Nc1ccc(COc2ccc(Nc3ccnc4cc(-c5ccccn5)ccc34)cc2)cc1.Cl", "%", 2),
    ("O=c1cc(N2CCOCC2)nc2n(Cc3cccc(C(F)(F)F)c3)ccn12", "%", 0),
]

Here is another compound to look at.
Recorded %Inh for `NS(=O)(=O)c1cccc(-c2ccc3nccc(-c4cccc(S(N)(=O)=O)c4)c3c2)c1` , please?
0

----------
test system: HIPK2; details: concentration: 1 μM, replicates: in singlicate; n = 1
quantity-kind: %Inh (%)
I only need the number, in %, no unit after it.

Example results:
# compound, %Inh (%)
records = [
    ("O=C(Nc1n[nH]c2cc(-c3cccc(F)c3)ccc12)C1CC1 [SB-735464]", 22),
    ("c1ccc(-c2n[nH]cc2-c2ccnc3ccccc23)nc1 [GW271431]", 0),
    ("COCCNC(=O)c1ccc(-c2cc(C(=O)NC3CC3)cc(F)c2C)cc1 [GW868318]", 15),
    ("Cc1cccc(-c2nc(Nc3ccc4ncsc4c3)c3ccccc3n2)n1 [GW867588]", 11),
    ("O=C(Nc1cccc(-c2nn3ncccc3c2-c2ccnc(Nc3cccc(C(F)(F)F)c3)n2)c1)c1c(F)cccc1F [GSK299495]", 0),
    ("O=C(c1ccc(-c2cc(-c3c[nH]nc3-c3ccccn3)ccn2)cc1)N1CCOCC1 [GW812171]", 0),
    ("Cl.Nc1ncnc2occ(-c3ccc(NC(=O)Nc4cc(C(F)(F)F)ccc4F)cc3)c12 [SB-707548]", 50),
    ("CSc1ccc(-c2cc3ncnc(SCC(=O)O)c3s2)cc1", 52),
]

Here is another compound to look at.
Which %Inh is reported with HIPK2 for this entry: `CN1c2ccc(CNc3ccc(F)cc3)cc2-c2c(cnn2C)S1(=O)=O` ?
0

----------
tested on: CDK4-cyclinD1; conditions: concentration: 1 μM, replicates: in singlicate; n = 1
quantity-kind: %Inh (%)
I only need the number, in %, no unit after it.

Example results:
# compound, %Inh [%]
records = [
    ("NS(=O)(=O)c1cccc(-c2ccc3nccc(-c4cccc(S(N)(=O)=O)c4)c3c2)c1 [GW867253]", 0),
    ("Cn1cc(-c2ccc3c(c2)CCN3C(=O)Cc2ccccc2Cl)c2c(N)ncnc21 [GSK2608885]", 0),
    ("O=c1cc(N2CCOCC2)nc2n(Cc3cccc(C(F)(F)F)c3)ccn12 [GSK2297543]", 0),
    ("CN1c2ccc(CNc3ccc(F)cc3)cc2-c2c(cnn2C)S1(=O)=O", 13),
]

Recorded %Inh for COc1ccc(Nc2nccc(N3CCC(NC(=O)Nc4cccc(C(C)=O)c4)C3)n2)cc1 (stereo not drawn) [GSK1379731] , please?
2

Recorded %Inh for `CSc1ccc(-c2cc3ncnc(SCC(=O)O)c3s2)cc1` , please?
0

Recorded %Inh for c1ccc(-c2n[nH]cc2-c2ccnc3ccccc23)nc1 [GW271431] , please?
0

Recorded %Inh for Fc1ccc(-c2ncn(CCCN3CCOCC3)c2-c2ccccn2)cc1 [SB-211742] , please?
22

Recorded %Inh for Fc1ccc(-c2nn3c(OCC(F)(F)F)cccc3c2-c2ccncc2)cc1 [GW514784] , please?
46

----------
system: RAF1; settings: concentration: 1 μM, replicates: in singlicate; n = 1
Label 1 (yes) when %Inh is strictly below 5%; otherwise label 0 (no).

# sample-smiles, group-label
rows = [
    ("O=C(NCCNc1ccnc(Nc2ccc(F)cc2)n1)c1cc2ccccc2s1", "0 (no)"),
    ("CCCCCc1nc2c(N)ncnc2n1CCCCC", "0 (no)"),
    ("Fc1ccc(-c2ncn(CCCN3CCOCC3)c2-c2cccnc2)cc1", "0 (no)"),
    ("CN1c2ccc(CNc3ccc(F)cc3)cc2-c2c(cnn2C)S1(=O)=O", "1 (yes)"),
]

Quick check: %Inh of `CCc1nc(-c2cccc(C)c2)c(-c2ccnc(NCc3ccccc3)c2)s1` under 5%?
0 (no)

Quick check: %Inh of `O=c1cc(N2CCOCC2)nc2n(Cc3cccc4ccccc34)ccn12` under 5%?
1 (yes)

Quick check: %Inh of `O=c1cc(N2CCOCC2)nc2n(Cc3cccc(F)c3)ccn12` under 5%?
1 (yes)

Quick check: %Inh of `N#Cc1ccc(-c2cc(-c3c[nH]nc3-c3ccccn3)ccn2)cc1` under 5%?
1 (yes)

----------
test system: MAP3K1; conditions: concentration: 1 μM, replicates: in singlicate; n = 1
quantity-kind: %Inh
Answer as a quantity: numeral, then unit.

Example results:
# molecule, test-target, %Inh
records = [
    ("Nc1nc(-c2ccc3c(N)n[nH]c3c2)cc(N2CCCC2)n1", "MAP3K1", "0%"),
    ("CC(C)Oc1ccc2c(-c3ccnc(Nc4ccc(N5CCN(C)CC5)cc4)n3)cnn2n1", "MAP3K1", "39%"),
    ("Cc1cccc(-c2nc(-c3ccc(S(C)(=O)=O)cc3)sc2-c2ccncc2)c1", "MAP3K1", "12%"),
    ("CN1c2ccc(NCc3ccc(F)cc3)cc2-c2c(cnn2C)S1(=O)=O", "MAP3K1", "0%"),
]

Recorded %Inh for `O=C(NOCC1CC1)c1ccc(F)c(F)c1Nc1ccc(I)cc1Cl` , please?
0%

Recorded %Inh for `CCc1nc(-c2cccc(C)c2)c(-c2ccnc(NCc3ccccc3)c2)s1` , please?
0%

Recorded %Inh for `O=C(Nc1cccc(-c2nn3ncccc3c2-c2ccnc(Nc3cccc(C(F)(F)F)c3)n2)c1)c1c(F)cccc1F` , please?
15%
